Assay: Visual cell toxicity in MRC-5 cells (HCMV assay)
Type: cell-based
Condition context: human, previous data, read-out: CD50 (cytotoxicity)

# Entry smiles, CC50
records = [
    ("Nc1nc(O)c2ncn(COC(CO)CO)c2n1", "> 1000 µg/mL"),
]
